Target: BK channels, cloned hSlo (α-hSlo and β-bSlo) in CHO cells (Homo sapiens, UniProt Q12791)
Sequence (Q12791 whole entry): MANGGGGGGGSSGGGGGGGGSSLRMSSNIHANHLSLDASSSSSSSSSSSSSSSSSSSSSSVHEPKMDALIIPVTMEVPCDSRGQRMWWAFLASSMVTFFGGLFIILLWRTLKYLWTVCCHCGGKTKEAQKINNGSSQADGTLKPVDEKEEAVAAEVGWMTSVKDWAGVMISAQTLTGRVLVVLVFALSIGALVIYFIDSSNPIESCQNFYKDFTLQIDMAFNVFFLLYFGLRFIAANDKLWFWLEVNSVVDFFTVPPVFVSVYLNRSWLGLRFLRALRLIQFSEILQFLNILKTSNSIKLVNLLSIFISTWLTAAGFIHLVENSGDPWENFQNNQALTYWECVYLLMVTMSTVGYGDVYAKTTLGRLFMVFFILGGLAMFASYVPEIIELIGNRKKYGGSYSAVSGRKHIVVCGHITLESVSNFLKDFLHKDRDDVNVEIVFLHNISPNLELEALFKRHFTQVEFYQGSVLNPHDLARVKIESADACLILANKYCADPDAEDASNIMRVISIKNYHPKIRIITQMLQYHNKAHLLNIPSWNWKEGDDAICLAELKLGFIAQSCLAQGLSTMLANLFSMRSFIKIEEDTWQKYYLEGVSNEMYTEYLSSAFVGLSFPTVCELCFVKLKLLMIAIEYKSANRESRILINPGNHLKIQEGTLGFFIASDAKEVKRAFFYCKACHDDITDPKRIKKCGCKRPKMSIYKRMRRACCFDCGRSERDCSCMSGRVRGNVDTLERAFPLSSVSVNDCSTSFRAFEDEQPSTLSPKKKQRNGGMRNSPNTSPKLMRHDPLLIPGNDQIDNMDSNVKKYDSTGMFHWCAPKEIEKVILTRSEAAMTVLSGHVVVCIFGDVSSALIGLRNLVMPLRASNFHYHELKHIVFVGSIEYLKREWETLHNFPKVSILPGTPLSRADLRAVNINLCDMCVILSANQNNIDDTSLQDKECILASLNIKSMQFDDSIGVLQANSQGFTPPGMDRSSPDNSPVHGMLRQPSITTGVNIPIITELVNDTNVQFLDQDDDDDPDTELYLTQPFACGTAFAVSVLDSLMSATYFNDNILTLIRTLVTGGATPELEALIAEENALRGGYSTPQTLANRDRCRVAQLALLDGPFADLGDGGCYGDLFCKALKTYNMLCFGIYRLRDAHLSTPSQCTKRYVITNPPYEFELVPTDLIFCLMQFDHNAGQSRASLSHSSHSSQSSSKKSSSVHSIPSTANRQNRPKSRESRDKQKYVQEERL
Sequence (Q28067 whole entry partner): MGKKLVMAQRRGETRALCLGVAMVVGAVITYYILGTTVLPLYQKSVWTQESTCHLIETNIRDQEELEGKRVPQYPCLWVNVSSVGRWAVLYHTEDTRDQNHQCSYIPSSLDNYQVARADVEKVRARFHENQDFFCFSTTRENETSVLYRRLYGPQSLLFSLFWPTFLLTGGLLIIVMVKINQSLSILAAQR
Assay: Em-Assay (voltage sensitive dye DiBAC(4)3 fluorescence, membrane potential)
Format: cell-based
Settings: ratio of the compound effect (50 μM) compared to the maximal effect of NS004 (25 or 50 μM); hSlo transfected CHO cells
measurement-type: Em effect

The following compounds have reported results that may help.
smi | Em effect
FC(F)(F)c1ccc(-c2ccc3cc[nH]c3c2)cc1 | + (0-1=+)
Clc1ccc(-c2cccc3[nH]ccc23)s1 | + (0-1=+)
Clc1ccc(-c2ccc3cc[nH]c3c2)cc1 | + (0-1=+)
c1cc(-c2ccsc2)c2cc[nH]c2c1 | + (0-1=+)
c1ccc(-c2ccc3[nH]ccc3c2)nc1 | + (0-1=+)

Switching to the query record.
Recorded Em effect for c1ccc2c(-c3ccc4[nH]ccc4c3)cccc2c1 with BK channels, cloned hSlo (α-hSlo and β-bSlo) in CHO cells (Homo sapiens, UniProt Q12791), please?
++ (>1=++)

Data origin: patent US20030203959A1
